Below, each entry is listed alongside its reported EC50.
Target: human androgen receptor (AR) (Homo sapiens, UniProt P10275)
Construct: expressed in transfected cells; host or cells: mouse myoblast C2C12 cells, transiently co-transfected
Sequence (P10275 1-920): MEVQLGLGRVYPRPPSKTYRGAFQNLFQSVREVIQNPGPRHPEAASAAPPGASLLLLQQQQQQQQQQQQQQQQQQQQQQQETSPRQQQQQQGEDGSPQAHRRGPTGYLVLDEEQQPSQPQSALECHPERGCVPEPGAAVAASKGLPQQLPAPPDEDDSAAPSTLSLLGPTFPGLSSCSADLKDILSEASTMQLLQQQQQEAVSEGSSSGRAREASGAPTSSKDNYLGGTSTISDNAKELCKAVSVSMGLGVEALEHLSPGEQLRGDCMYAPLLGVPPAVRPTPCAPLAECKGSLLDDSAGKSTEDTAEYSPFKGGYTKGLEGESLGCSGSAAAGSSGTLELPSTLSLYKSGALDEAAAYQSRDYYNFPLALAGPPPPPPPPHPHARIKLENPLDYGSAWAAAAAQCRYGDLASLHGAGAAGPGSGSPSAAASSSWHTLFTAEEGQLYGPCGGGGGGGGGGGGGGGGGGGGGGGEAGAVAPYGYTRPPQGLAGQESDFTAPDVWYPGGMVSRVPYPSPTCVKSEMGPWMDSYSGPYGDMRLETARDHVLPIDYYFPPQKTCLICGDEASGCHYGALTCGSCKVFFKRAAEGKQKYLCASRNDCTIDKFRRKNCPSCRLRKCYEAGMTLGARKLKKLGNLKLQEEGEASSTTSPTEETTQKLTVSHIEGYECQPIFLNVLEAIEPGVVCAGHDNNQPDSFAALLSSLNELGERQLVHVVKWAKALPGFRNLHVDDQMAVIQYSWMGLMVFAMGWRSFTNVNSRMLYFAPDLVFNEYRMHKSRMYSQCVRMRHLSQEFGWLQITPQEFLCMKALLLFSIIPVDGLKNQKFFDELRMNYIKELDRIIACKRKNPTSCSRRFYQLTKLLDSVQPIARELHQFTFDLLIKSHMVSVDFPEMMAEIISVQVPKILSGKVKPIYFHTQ
Assay: C2C12 AR/ARE reporter assay
Type: cell-based
measured-parameter: EC50 (µM)

1) COc1ccccc1Cn1c2c(c3cc(F)ccc31)CC(NC(=O)C(C)C)CC2 (stereo not shown) ... 1.77
2) Cc1ccc2c(c1)c1c(n2Cc2ccccc2)CCC(NC(=O)C(C)C)C1 (stereo not shown) ... 0.0304
3) Cc1nc(Cn2c3c(c4cc(C#N)ccc42)CC(NC(=O)C(C)C)CC3)cs1 (stereo not shown) ... 0.0988
4) CC(C)C(=O)NC1CCc2c(c3cc(F)ccc3n2Cc2ccc(C#N)cc2)C1 (stereo not shown) ... 0.927
5) COc1ccc(Cn2c3c(c4cc(Br)ccc42)CC(NC(=O)C(C)C)CC3)cc1 (stereo not shown) ... 1.82
6) CC(C)C(=O)NC1CCc2c(c3cc(C#N)ccc3n2Cc2cccc(Br)c2)C1 (stereo not shown) ... 0.0363
7) CC(C)C(=O)NC1CCc2c(c3cc4c(cc3n2Cc2cccc(F)c2)OCO4)C1 (stereo not shown) ... 0.0408
8) CC(C)C(=O)N[C@@H]1CCc2c(c3cc(C#N)ccc3n2Cc2cnccn2)C1 ... 0.0063
9) CC(C)C(=O)NC1CCc2c(c3cc(-c4cncnc4)ccc3n2Cc2cccc(F)c2)C1 (stereo not shown) ... 0.0175
10) CC(C)C(=O)NC1CCc2c(c3cc(C(=O)C(F)(F)F)ccc3n2Cc2cccc(F)c2)C1 (stereo not shown) ... 0.0176
11) CC(C)C(=O)NC1CCc2c(c3cc(C#N)ccc3n2Cc2cccc(N)c2)C1 (stereo not shown) ... 0.123
12) CC(C)C(=O)NC1CCc2c(c3cc(-c4cccnc4)ccc3n2Cc2cccc(F)c2)C1 (stereo not shown) ... 0.0054
13) CCNc1ccccc1Cn1c2c(c3cc(C#N)ccc31)CC(NC(=O)C(C)C)CC2 (stereo not shown) ... 0.0272
14) CC(C)C(=O)NC1CCc2c(c3cc(F)ccc3n2Cc2cccc(Cl)c2)C1 (stereo not shown) ... 0.113
15) CON(C)C(=O)NC1CCc2c(c3cc(C#N)ccc3n2Cc2cccc(F)c2)C1 (stereo not shown) ... 0.0022
16) Cc1csc(Cn2c3c(c4cc(C#N)ccc42)C[C@H](NC(=O)C(C)C)CC3)n1 ... 0.0305

----------
biological target: human androgen receptor (AR) (Homo sapiens, UniProt P10275); construct: expressed in transfected cells; host or cells: mouse myoblast C2C12 cells, transiently co-transfected; assay: C2C12 AR/ARE reporter assay; format: cell-based; conditions: read-out: C2C12 EC50; C2C12 AR/ARE reporter assay; average of n trials
measured-parameter: EC50 (nM)

1) CC(C)C(=O)NC1CCc2c(c3cc(Br)ccc3n2Cc2cccc(F)c2)C1 (stereo not shown) ... 2.3

----------
target: human androgen receptor (AR) (Homo sapiens, UniProt P10275); construct: expressed in transfected cells; host or cells: mouse myoblast C2C12 cells, transiently co-transfected; assay: C2C12 AR/ARE reporter assay; assay type: cell-based; conditions: C2C12, read-out: C2C12 % Efficacy
Emax vs 70%: less than gives Condition met; not less than gives Condition not met.

1) CC(C)C(=O)NC1CCc2c(c3cc(Cl)ccc3n2Cc2ccc(F)cc2)C1 (centres unmarked) [Example 25] ... Condition met
2) CC(C)C(=O)NC1CCc2c(c3cc(F)ccc3n2Cc2cccc(Cl)c2)C1 (centres unmarked) [Example 9] ... Condition met
3) N#Cc1ccc2c(c1)c1c(n2Cc2cccc(F)c2)CCC(NS(=O)(=O)C2CC2)C1 (centres unmarked) [Example 177] ... Condition not met
4) CC(C)C(=O)NC1CCc2c(c3cc(Cl)ccc3n2Cc2ccccc2Cl)C1 (centres unmarked) [Example 18] ... Condition not met
5) COc1ccc(Cn2c3c(c4cc(OC)ccc42)CC(NC(=O)C(C)C)CC3)cc1 (centres unmarked) [Example 74] ... Condition met
6) Cc1ncc(-c2ccc3c(c2)c2c(n3Cc3cccc(F)c3)CCC(NC(=O)C(C)C)C2)cn1 (centres unmarked) [Example 136] ... Condition not met
7) Cc1nc(-c2ccc3c(c2)c2c(n3Cc3cccc(F)c3)CC[C@@H](NC(=O)C(C)C)C2)sc1C [Example 129] ... Condition met
8) CC(C)C(=O)N[C@@H]1CCc2c(c3cc(C#N)ccc3n2Cc2ccccn2)C1 [Example 161] ... Condition not met

----------
target: human androgen receptor (AR) (Homo sapiens, UniProt P10275); construct: expressed in transfected cells; host or cells: mouse myoblast C2C12 cells, transiently co-transfected; test: C2C12 AR/ARE reporter assay; type: cell-based
pEC50: −log10 of the molar value.
Everything with pEC50 lower than 7 is Criterion not met; everything else, including exactly 7, is Criterion met.

1) CC(C)Oc1ccc2c(c1)c1c(n2Cc2cccc(F)c2)CCC(NC(=O)C(C)C)C1 (centres unmarked) [Example 94] ... Criterion met
2) COc1ccc2c(c1)c1c(n2Cc2cccnc2)CCC(NC(=O)C(C)C)C1 (centres unmarked) [Example 144] ... Criterion not met
3) CC(C)C(=O)N[C@@H]1CCc2c(c3cc(-c4nnc(N)s4)ccc3n2Cc2cccc(F)c2)C1 [Example 126] ... Criterion met
4) CC(C)C(=O)NC1CCc2c(c3cc(-c4nccs4)ccc3n2Cc2cccc(F)c2)C1 (centres unmarked) [Example 130] ... Criterion met
5) COc1cc2c3c(n(Cc4cccc(F)c4)c2cc1Cl)CCC(NC(=O)C(C)C)C3 (centres unmarked) [Example 59] ... Criterion not met
6) Cc1csc(-c2ccc3c(c2)c2c(n3Cc3cccc(F)c3)CC[C@@H](NC(=O)C(C)C)C2)n1 [Example 128] ... Criterion not met

----------
molecular target: human androgen receptor (AR) (Homo sapiens); construct: expressed in transfected cells; host or cells: mouse myoblast C2C12 cells, transiently co-transfected; assay: C2C12 AR/ARE reporter assay; assay type: cell-based; conditions: C2C12, read-out: C2C12 % Efficacy
measured-parameter: Emax (%)

1) CC(C)C(=O)NC1CCc2c(c3cccc(Cl)c3n2Cc2cccc(F)c2)C1 (centres unmarked) ... 36.5
2) Cc1nc(Cn2c3c(c4cc(C=O)ccc42)C[C@H](NC(=O)C(C)C)CC3)cs1 ... 88.4
3) CC(C)C(=O)NC1CCc2c(c3cc(C#N)ccc3n2Cc2csc(Cl)n2)C1 (centres unmarked) ... 93.3
4) CC(C)C(=O)NC1CCc2c(c3cc(OCC4CC4)ccc3n2Cc2cccc(F)c2)C1 (centres unmarked) ... 73.4
5) CC(C)C(=O)NC1CCc2c(c3cc(F)ccc3n2Cc2ccc(C#N)cc2)C1 (centres unmarked) ... 36.4
6) Cc1ccc2c(c1)c1c(n2Cc2ccccc2C#N)CCC(NC(=O)C(C)C)C1 (centres unmarked) ... 40.5
7) CC(C)C(=O)NC1CCc2c(c3cc(OC(F)(F)F)ccc3n2Cc2cccc(F)c2)C1 (centres unmarked) ... 81.1
8) COC(=O)NC1CCc2c(c3cc(C#N)ccc3n2Cc2cccc(F)c2)C1 (centres unmarked) ... 78.9
